Target: Mitogen-activated protein kinase kinase kinase 5 (Homo sapiens, UniProt Q99683)
Sequence (Q99683 whole entry): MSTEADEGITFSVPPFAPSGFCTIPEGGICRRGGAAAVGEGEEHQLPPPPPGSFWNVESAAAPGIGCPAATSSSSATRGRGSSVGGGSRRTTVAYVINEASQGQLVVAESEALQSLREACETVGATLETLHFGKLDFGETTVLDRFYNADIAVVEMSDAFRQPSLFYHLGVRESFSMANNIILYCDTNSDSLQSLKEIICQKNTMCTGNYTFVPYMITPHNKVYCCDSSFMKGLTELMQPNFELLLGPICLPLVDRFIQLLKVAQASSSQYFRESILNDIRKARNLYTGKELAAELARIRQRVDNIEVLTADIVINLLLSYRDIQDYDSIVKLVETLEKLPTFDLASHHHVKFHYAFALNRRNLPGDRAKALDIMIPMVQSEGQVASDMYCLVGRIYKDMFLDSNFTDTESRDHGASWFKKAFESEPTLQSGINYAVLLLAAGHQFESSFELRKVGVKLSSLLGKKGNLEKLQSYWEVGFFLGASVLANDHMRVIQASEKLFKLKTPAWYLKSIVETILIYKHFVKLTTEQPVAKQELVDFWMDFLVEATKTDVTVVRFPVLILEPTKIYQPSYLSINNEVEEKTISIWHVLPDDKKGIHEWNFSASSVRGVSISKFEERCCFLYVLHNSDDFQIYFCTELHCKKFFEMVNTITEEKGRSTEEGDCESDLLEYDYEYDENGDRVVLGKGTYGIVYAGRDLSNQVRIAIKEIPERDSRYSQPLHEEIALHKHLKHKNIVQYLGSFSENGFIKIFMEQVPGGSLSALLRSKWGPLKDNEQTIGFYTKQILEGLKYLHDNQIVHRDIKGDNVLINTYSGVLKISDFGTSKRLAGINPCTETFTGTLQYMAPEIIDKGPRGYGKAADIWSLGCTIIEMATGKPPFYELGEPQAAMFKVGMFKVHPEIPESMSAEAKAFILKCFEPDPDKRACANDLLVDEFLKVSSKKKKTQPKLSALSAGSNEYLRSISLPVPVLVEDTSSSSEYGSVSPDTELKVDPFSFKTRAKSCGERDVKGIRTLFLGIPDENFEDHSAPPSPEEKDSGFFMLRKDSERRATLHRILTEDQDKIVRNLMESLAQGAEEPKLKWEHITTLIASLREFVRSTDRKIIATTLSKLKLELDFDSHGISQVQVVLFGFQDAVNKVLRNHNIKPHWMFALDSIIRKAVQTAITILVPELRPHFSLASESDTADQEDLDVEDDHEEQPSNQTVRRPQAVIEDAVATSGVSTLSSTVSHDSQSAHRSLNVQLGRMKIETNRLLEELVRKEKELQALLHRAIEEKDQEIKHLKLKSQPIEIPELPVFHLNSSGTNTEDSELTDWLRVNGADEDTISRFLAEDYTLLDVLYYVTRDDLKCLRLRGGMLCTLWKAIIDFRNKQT
Test: HTRF KinEASE Assay : ASK1 was purchased from Thermofisher (Catalogue #PV4011), ATP was purchased from Sigma (Catalogue #A7699), HTRF® KinEASE Assay System was obtained from Cisbio (Bedford, Mass.). ½ Area plate was purchased from Perkin Elmer (Catalogue ##6005560). HTRF® KinEASE-STK is a generic method for measuring serine/threonine kinase activities using a time-resolved fluorescence resonance energy transfer (TR-FRET) immunoassay. The IC50 value for each compound was determined in the presence of compound (various concentration from 0 to 10 μM) and a fixed amount of ATP and peptide substrates. The test compound, 1 μM STK3 peptide substrate, and […] are incubated with kinase reaction buffer containing 50 mM HEPES Ph 7.5, 0.01% BRIJ-35, 10 mM MgCl2, and 1 mM EGTA for 30 minutes. 100 μM ATP is added to start kinase reaction and incubated for 3 hours. The STK3-antibody labeled with Eu3+-Cryptate and 125 nM streptavidin-XL665 are mixed in a single addition with stop reagents provided by the Cisbio kit used to stop the kinase reaction. Fluorescence is detected using an Envision Multilabeled 2014 reader from PerkinElmer. The Fluorescence is measured at 615 nm (Cryptate) and 665 nm (XL665) and a ratio of 665 nm/615 nm is calculated for each well. The resulting TR-FRET is proportional to the phosphorylation level. Staurosporine was used as the positive control. IC50 was determined by Xlfit 5.3.
The reader will find reported IC50 values listed item by item below.

Reference set, count: 3
C[C@H](CO)n1cnnc1-c1cccc(NC(=O)c2cc3c(cc2F)CCN(C(=O)C(C)(C)C)C3)n1; 1.25 to 10 nM
C[C@H](CO)n1cnnc1-c1cccc(NC(=O)c2cc3c(cc2F)CCN(S(=O)(=O)C2CC2)C3)n1; < 1.25 nM
COc1cc2c(cc1C(=O)Nc1cccc(-c3nncn3C(C)C)n1)CN(C)CC2; < 1.25 nM

INPUT: Short answer please: IC50, Mitogen-activated protein kinase kinase kinase 5 (Homo sapiens, UniProt Q99683), entry COc1cc2c(cc1C(=O)Nc1cccc(-c3nnnn3C(C)C)n1)CN(S(=O)(=O)C1CC1)CC2
OUTPUT: < 1.25 nM

# credit: ChEMBL document CHEMBL5729134
